Experiment: Volume of distribution at steady state in cancer patient at 120 mg for 60 mins treated 1/1 cycle/day
Type: ADME, organism-based
Design: dosed compound name LY2090314
Conditions: human, in vivo, read-out: Vdss
Observation type: Vd (L)

1) O=C1NC(=O)C(c2cnc3ccccn23)=C1c1cn2c3c(cc(F)cc13)CN(C(=O)N1CCCCC1)CC2: 82.1

----------
Test: Cmax in cancer patient at 40 mg for 60 mins treated 1/1 cycle/day
Assay type: ADME, organism-based
Design: dose 40 mg, dosed compound name LY2090314
Settings: human, in vivo
Observation type: Cmax (ng/mL)

1. O=C1NC(=O)C(c2cnc3ccccn23)=C1c1cn2c3c(cc(F)cc13)CN(C(=O)N1CCCCC1)CC2: 603
